target: Protein kinase C alpha type (Homo sapiens, UniProt P17252); experiment: Displacement of [20-3H] phorbol 12, 13-dibutylate from recombinant PKCalpha (unknown origin) in presence of 100 ug/ml 100% phosphatidylserine
pKi: −log10 of the molar value.
outcomeMeasure: pKi

Take a look at these entries with their results.
molecule: CCCCCCC#CC#CCCCCCCCC(=O)OCC1(CO)C/C(=C/CC(C)C)C(=O)O1 (stereo not given)
recordedValue: 8.01

molecule: CCCCCCCCC#CCCCCCCCC(=O)OCC1(CO)C/C(=C/CC(C)C)C(=O)O1 (stereo not given)
recordedValue: 7.90

molecule: CC(C)CC(C/C=C1\CC(CO)(COC(=O)C(C)(C)C)OC1=O)CC(C)C (stereo not given)
recordedValue: 8.08

A = CCCCCC1CC1CC1CC1CCCCCCCC(=O)OCC1(CO)C/C(=C\CC(C)C)C(=O)O1 (stereo not given)
B = CCCCCCCCCCCCCCCCCC(=O)OCC1(CO)C/C(=C/CC(C)C)C(=O)O1 (stereo not given)
Req: Higher pKi: A or B ? Indicate which entry you chose by stating its label.
Resp: A

----------
species: Homo sapiens; test: Selectivity index, ratio of Ki for recombinant PKCalpha (unknown origin) in presence of 100 ug/ml 100% phosphatidylserine to Ki for recombinant PKCepsilon (unknown origin) in presence of 100 ug/ml 100% phosphatidylserine
outcomeMeasure: Ratio Ki

Take a look at these entries with their results.
compound: CCCCCC1CC1CC1CC1CCCCCCCC(=O)OCC1(CO)C/C(=C\CC(C)C)C(=O)O1 (stereo not given)
outcomeMeasure: Ratio Ki
recordedValue: 1.9
--
compound: CC(C)C/C=C1\CC(CO)(COC(=O)CC(CC(C)C)CC(C)C)OC1=O (stereo not given)
outcomeMeasure: Ratio Ki
recordedValue: 2.3
--
compound: CCCCCCCCCCCCCCCCCC(=O)OCC1(CO)C/C(=C\CC(C)C)C(=O)O1 (stereo not given)
outcomeMeasure: Ratio Ki
recordedValue: 2.7

A = CCCCCC1CC1CC1CC1CCCCCCC/C=C1\CC(CO)(COC(=O)C(C)(C)C)OC1=O (stereo not given)
B = CC(C)C/C=C1/CC(CO)(COC(=O)CC(CC(C)C)CC(C)C)OC1=O (stereo not given)
Req: Higher Ratio Ki: A or B ? Indicate which entry you chose by stating its label.
Resp: A
(A: 3.2, B: 2)

----------
test: Lipophilicity, log P of the compound; assay type: physicochemical; conditions: octanol/water
outcomeMeasure: logP

compound: CCCCCC1CC1CC1CC1CCCCCCC/C=C1\CC(CO)(COC(=O)C(C)(C)C)OC1=O (centres undefined)
recordedValue: 9.15
--
compound: CCCCCC1CC1CC1CC1CCCCCCCC(=O)OCC1(CO)C/C(=C\CC(C)C)C(=O)O1 (centres undefined)
recordedValue: 9.19
--
compound: CCCCCC1CC1CC1CC1CCCCCCCC(=O)OCC1(CO)C/C(=C/CC(C)C)C(=O)O1 (centres undefined)
recordedValue: 9.19
--
compound: CCCCCC1CC1CC1CC1CCCCCCC/C=C1/CC(CO)(COC(=O)C(C)(C)C)OC1=O (centres undefined)
recordedValue: 9.15

----------
Biological target: Protein kinase C epsilon type (Homo sapiens, UniProt Q02156)
Sequence (Q02156 whole entry): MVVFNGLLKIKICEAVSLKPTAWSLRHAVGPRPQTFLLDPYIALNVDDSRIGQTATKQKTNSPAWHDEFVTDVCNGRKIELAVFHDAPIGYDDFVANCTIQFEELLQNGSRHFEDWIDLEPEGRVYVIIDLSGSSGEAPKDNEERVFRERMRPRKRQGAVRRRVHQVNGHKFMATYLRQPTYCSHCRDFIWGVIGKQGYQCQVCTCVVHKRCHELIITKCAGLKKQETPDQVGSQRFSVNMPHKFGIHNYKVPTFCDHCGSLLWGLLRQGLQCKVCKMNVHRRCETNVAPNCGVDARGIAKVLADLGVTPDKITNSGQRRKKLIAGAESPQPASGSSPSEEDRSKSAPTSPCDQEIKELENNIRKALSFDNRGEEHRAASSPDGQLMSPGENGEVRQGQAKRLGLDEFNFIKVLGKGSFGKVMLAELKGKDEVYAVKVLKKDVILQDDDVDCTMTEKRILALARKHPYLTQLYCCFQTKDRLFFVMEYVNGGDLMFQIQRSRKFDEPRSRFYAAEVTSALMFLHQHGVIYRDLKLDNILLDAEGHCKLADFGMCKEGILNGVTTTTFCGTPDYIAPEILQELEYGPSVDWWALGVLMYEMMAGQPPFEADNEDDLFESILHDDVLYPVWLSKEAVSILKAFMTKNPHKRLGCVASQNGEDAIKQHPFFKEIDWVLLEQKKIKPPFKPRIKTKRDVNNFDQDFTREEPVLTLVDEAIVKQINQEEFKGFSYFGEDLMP
Assay: Displacement of [20-3H] phorbol 12, 13-dibutylate from recombinant PKCepsilon (unknown origin) in presence of nuclear membrane mimetic lipid mixture
Format: cell membranes
outcomeMeasure: Ki (nM)

I = CCCCCC1OC1CC1OC1CCCCCCCC(=O)OCC1(CO)C/C(=C\CC(C)C)C(=O)O1 (centres undefined)
II = CCCCCCC#CC#CCCCCCCCC(=O)OCC1(CO)C/C(=C/CC(C)C)C(=O)O1 (centres undefined)
III = CCCCCCCCC#CCCCCCCCC(=O)OCC1(CO)C/C(=C\CC(C)C)C(=O)O1 (centres undefined)
IV = CCCCCC1OC1CC1OC1CCCCCCCC(=O)OCC1(CO)C/C(=C/CC(C)C)C(=O)O1 (centres undefined)
V = CCCCC/C=C\C/C=C\CCCCCCC/C=C1\CC(CO)(COC(=O)C(C)(C)C)OC1=O (centres undefined)
Req: # order the compounds above by Ki, highest value first Put the labels in the order asked and list them.
Resp: IV, II, I, III, V
